# maps each entry to its α1 PAM (%)
Molecular target: GABRA1-GABRB3-GABRG2 chloride currents in HEK cells (Homo sapiens (Human), UniProt P14867+P18507)
Sequence (P14867 28-456): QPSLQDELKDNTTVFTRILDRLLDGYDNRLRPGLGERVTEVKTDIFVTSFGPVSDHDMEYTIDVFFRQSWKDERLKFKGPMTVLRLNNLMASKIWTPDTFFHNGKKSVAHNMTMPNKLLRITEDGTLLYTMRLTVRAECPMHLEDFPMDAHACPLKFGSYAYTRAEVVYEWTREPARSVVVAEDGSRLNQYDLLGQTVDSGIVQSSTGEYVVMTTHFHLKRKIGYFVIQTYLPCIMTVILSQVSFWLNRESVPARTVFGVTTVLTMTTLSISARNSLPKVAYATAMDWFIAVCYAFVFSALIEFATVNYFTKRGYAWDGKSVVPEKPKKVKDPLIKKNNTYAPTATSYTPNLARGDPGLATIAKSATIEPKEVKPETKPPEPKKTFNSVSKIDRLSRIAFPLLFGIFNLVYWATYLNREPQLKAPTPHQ
Sequence (P28472 26-473 partner): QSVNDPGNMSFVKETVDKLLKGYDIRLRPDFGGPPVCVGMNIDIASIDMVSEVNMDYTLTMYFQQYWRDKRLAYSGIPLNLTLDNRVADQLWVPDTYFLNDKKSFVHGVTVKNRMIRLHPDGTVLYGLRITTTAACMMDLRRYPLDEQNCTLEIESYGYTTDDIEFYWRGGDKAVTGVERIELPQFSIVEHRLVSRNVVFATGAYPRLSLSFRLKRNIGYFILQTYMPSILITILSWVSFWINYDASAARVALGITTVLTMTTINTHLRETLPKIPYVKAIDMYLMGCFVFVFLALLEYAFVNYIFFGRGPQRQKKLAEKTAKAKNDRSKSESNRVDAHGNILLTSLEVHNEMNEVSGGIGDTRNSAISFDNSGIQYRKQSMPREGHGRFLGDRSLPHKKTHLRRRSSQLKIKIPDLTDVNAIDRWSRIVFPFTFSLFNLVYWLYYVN
Sequence (P18507 40-475): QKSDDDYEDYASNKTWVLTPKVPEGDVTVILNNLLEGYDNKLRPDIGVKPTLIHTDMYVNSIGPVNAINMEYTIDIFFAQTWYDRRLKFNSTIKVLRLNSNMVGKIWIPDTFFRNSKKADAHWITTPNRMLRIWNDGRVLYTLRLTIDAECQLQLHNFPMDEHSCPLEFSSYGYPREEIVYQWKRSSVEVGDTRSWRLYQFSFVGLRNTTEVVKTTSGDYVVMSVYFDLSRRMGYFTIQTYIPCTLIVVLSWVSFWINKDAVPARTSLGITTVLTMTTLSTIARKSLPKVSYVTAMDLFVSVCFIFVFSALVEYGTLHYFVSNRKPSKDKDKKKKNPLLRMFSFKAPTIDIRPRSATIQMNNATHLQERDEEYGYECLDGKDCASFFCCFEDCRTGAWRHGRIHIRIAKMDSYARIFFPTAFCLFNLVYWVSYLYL
Experiment: QPatch electrophysiological recording, % enhancement of GABA current (α1 PAM)
Assay type: cell-based
Details: approximately EC10 GABA, −60 mV, whole-cell patch clamp
Respond numerically; units are % and should not be typed.

Use these answered entries as a reference point.
[
  {
    "compound.smiles": "CCn1cnc2c(-c3ccc(F)c(-c4ccc(S(=O)(=O)CC)cc4C#N)c3)cnnc21",
    "endpoint.name": "α1 PAM (%)",
    "test.result": "−0.474"
  },
  {
    "compound.smiles": "CCn1cnc2c(-c3ccc(F)c(-c4ccc(S(C)(=O)=O)cc4F)c3)cnnc21",
    "endpoint.name": "α1 PAM (%)",
    "test.result": "−4.67"
  },
  {
    "compound.smiles": "CCn1cnc2c(-c3ccc(F)c(-c4ccc(S(=O)(=O)NC)cc4)c3)cnnc21",
    "endpoint.name": "α1 PAM (%)",
    "test.result": "−55.1"
  },
  {
    "compound.smiles": "CCS(=O)(=O)c1ccc(-c2cc(-c3cnnc4c3ncn4C3CC3)ccc2F)c(C#N)c1",
    "endpoint.name": "α1 PAM (%)",
    "test.result": "−5.82"
  },
  {
    "compound.smiles": "CCS(=O)(=O)c1ccc(-c2cc(-c3cnnc4c3ncn4C(C)C)ccc2F)c(F)c1",
    "endpoint.name": "α1 PAM (%)",
    "test.result": 4.99
  }
]

α1 PAM (%) for COc1cc(S(C)(=O)=O)ccc1-c1cc(-c2cnnc3c2ncn3C2CC2)ccc1F ?
−0.441

Any idea what α1 PAM (%) was measured for CS(=O)(=O)c1ccc(-c2cc(-c3cnnc4c3ncn4C3CC3)ccc2F)cc1 ?
−5.78

Which α1 PAM (%) value belongs to CNS(=O)(=O)c1ccc(-c2cc(-c3cnnc4c3ncn4C(C)C)ccc2F)cc1 ?
−27.0

Consider the molecule CCS(=O)(=O)c1ccc(-c2cc(-c3cnnc4c3ncn4C(C)C)ccc2F)c(C#N)c1 and give its measured α1 PAM (%).
14.9

Name the reported α1 PAM (%) value associated with the molecule CCn1cnc2c(-c3ccc(F)c(-c4ccc(S(=O)(=O)C(C)C)cc4)c3)cnnc21
1.05

For the molecule CCS(=O)(=O)c1ccc(-c2cc(-c3cnnc4c3ncn4C3CC3)ccc2F)cc1 , what α1 PAM (%) is on record?
−6.17

May I ask what α1 PAM (%) has been recorded for CCn1cnc2c(-c3ccc(F)c(-c4ccc(S(C)(=O)=O)cc4OC)c3)cnnc21 ?
3.66

# α1 PAM (%) lookup, item COc1cc(S(C)(=O)=O)ccc1-c1cc(-c2cnnc3c2ncn3C2CCC2)ccc1F
69.4

Which α1 PAM (%) is reported for this molecule? COc1cc(S(C)(=O)=O)ccc1-c1cc(-c2cnnc3c2ncn3C2CCCC2)ccc1F
112

Query (molecule): COc1cc(S(C)(=O)=O)ccc1-c1cc(-c2cnnc3c2ncn3C(C)C)ccc1F ; field requested: α1 PAM (%)
14.6

Please give the measured α1 PAM (%) for this molecule: CCS(=O)(=O)c1ccc(-c2cc(-c3cnnc4c3ncn4C(C)C)ccc2F)cc1
21.3

What value of α1 PAM (%) has been recorded for this entry: CCn1cnc2c(-c3ccc(F)c(-c4ccc(S(=O)(=O)CC)cc4OC)c3)cnnc21
18.1

Would you kindly share the measured α1 PAM (%) for CCn1cnc2c(-c3ccc(F)c(-c4ccc(S(N)(=O)=O)cc4)c3)cnnc21 ?
−51.1

Reported α1 PAM (%) for CCn1cnc2c(-c3ccc(F)c(-c4ccc(S(=O)(=O)CC)cc4C(F)F)c3)cnnc21 : what is it?
13.3

Which value of α1 PAM (%) has been reported for CC(C)n1cnc2c(-c3ccc(F)c(-c4ccc(S(N)(=O)=O)cc4)c3)cnnc21 in the records?
−29.5

Name the recorded α1 PAM (%) for CCn1cnc2c(-c3ccc(O)c(-c4ccc(S(=O)(=O)CC)cc4OC)c3)cnnc21 .
−5.53
